# Tested on: SK-MEL-2 melanoma
# experimentDescription: NCI tumour cell line growth inhibition, 48 h; in the data active = GI50 below about 0.43 µM; inactive = the rest
Answer with one of the outcomes label 1 (active), label 0 (inactive)

cpdSmiles | class
COc1cc(/C=C/C(=O)c2c(C)nc3ccccc3c2C)ccc1OCCCCOc1cc2c(cc1OC)C(=O)N1CCC[C@H]1C=N2 | label 1
O=C(Cc1ccc(Nc2ccnc(C(F)(F)F)c2)cc1)N/N=C/c1ccccc1O | label 0
CCC(C)(C)[C@H](NC(=O)[C@H]1CCCCN1C)C(=O)N(C)[C@H](C[C@@H](OC(C)=O)c1nc(C(=O)N[C@@H](Cc2ccccc2)C[C@H](C)C(=O)O)cs1)C(C)C | label 1

Input: Field: outcome | Entry: `CCOC(=O)Nc1ccc2c(c1)N(C(=O)CCN(CC)CC)c1ccccc1S2`
Output: label 0

###

# Tested on: KM12 colon
# experimentDescription: NCI tumour cell line growth inhibition, 48 h; in the data active means GI50 below about 0.43 µM; inactive means the rest
Answer with one of the outcomes label 1 for active, label 0 for inactive

Recorded results for 5 compounds are shown here.
compound | class
NC(=N\N=C/c1ccc(Cl)cc1Cl)/C(N)=N\N=C/c1ccc(Cl)cc1Cl | label 0
FC(F)(F)c1ccc(-c2ncc(-c3ccc(C(F)(F)F)cc3)c(NCc3cc(C(F)(F)F)cc(C(F)(F)F)c3)n2)cc1 | label 0
O=C(c1cccs1)c1nc2cc(Cl)ccc2[n+]([O-])c1C(F)(F)F | label 0
COc1ccc(/C=C/C(=O)c2ccc(Nc3nc(Nc4ccc(F)cc4)nc(Nc4ccc(Cl)cc4)n3)cc2)cc1 | label 0
COc1cc(/C=C/C(=O)c2ccc(F)cc2)ccc1OCCCCCOc1cc2c(cc1OC)C(=O)N1CCCC1C=N2 (stereo not given) | label 1

Input: Field: outcome | Entry: `O=C1C(=C([O-])c2ccccc2)C(=O)c2ccccc21.O=C1C(=C([O-])c2ccccc2)C(=O)c2ccccc21.[Co+2]`
Output: label 0

Input: What do you have for `N#Cc1c2ccccc2c2nnc3ccc(C(F)(F)F)cc3n12` ?
Output: label 0

Input: What do you have for `O=C1c2cccnc2C(=O)c2c1c(C(=O)OCCc1ccccn1)c1ccccn21` ?
Output: label 1

Input: What do you have for `CCC(C)(C)[C@H](NC(=O)[C@H]1CCCCN1C)C(=O)N(C)[C@H](C[C@@H](OC(C)=O)c1nc(C(=O)N[C@@H](Cc2ccccc2)C[C@H](C)C(=O)O)cs1)C(C)C` ?
Output: label 1

Input: What do you have for `N#C/C(=C\c1ccc(F)cc1)n1nc2cccc(F)c2n1` ?
Output: label 0

Input: What do you have for `O=C(Nc1ccc(I)cc1)c1cccc([N+](=O)[O-])c1O` ?
Output: label 0

Input: What do you have for `CCOC(=O)Nc1ccc2c(c1)N(C(=O)CCN(CC)CC)c1ccccc1S2` ?
Output: label 0

Input: What do you have for `CCCCN(CC)CCCCCCCCCCN1CCCc2cc(OC)ccc21` ?
Output: label 0

Input: What do you have for `O=c1[nH]c2ccccc2n2cc3ccccc3c12` ?
Output: label 0

Input: What do you have for `O=C1/C(=C\c2ccccc2)CN(C(=O)c2ccccc2)C/C1=C\c1ccccc1` ?
Output: label 0

###

# Test system: TK-10 renal
# experimentDescription: NCI tumour cell line growth inhibition, 48 h
Quick reference: TGI of the listed items.
Form entry: value (µM) — number only.

compound | testedTarget | experimentalResult
C=C(CCC/C(C)=C/C=C/[C@H](C)CCCc1ccoc1)C[C@@H]1OC(=O)[C@H](C)[C@@H]1O | TK-10 renal | 22.2

Input: What does the data say about its TGI? Entry: `O=C1/C(=C\c2ccccc2)CN(C(=O)c2ccccc2)C/C1=C\c1ccccc1`
Output: 9.06

Input: What do you have for CCN(CC)CC(O)COc1c(Br)c(Br)c(Br)c2c1OC(C)(C)C2 (stereo not given) ?
Output: 14.9

Input: What do you have for COC1=CC(=O)c2c(cc3c(c2O)-c2c(OC)cc4cc5c(c(O)c4c2OC(=O)CC(C)(O)C3)C(=O)CC(C)(O)C5)C1=O (stereo not given) ?
Output: 14.2

###

# Test system: SNB-75 CNS
# experimentDescription: NCI tumour cell line growth inhibition, 48 h; in the data active = GI50 below about 0.43 µM; inactive = the rest
Answer with one of the outcomes yes (1) = active, no (0) = inactive

Input: Field: outcome | Entry: Cn1c(NCC(CN2CCCC2)OC(=O)c2ccccc2)cc(=O)n(C)c1=O (stereo not given)
Output: no (0)

###

# System: MDA-MB-435
# experimentDescription: NCI tumour cell line growth inhibition, 48 h
experimentalReadout: TGI

A selection of reference data follows.
molecule | TGI
NC(=O)CCc1ccccc1Oc1nccc(-c2c(-c3ccc(F)cc3)ncn2C2CCNCC2)n1 | > 25 µM
CN(CSc1ccc(Cl)cc1)c1ccc(CSc2ccc(Cl)cc2)cc1 | 11.9 µM
C/C(=N/NC(=S)N1CC2CCC(CC2)C1)c1cnccn1 | 16.4 µM
O=C(c1ccccc1)C(Nc1ccc2ccccc2c1)c1ccccc1 (configuration not stated) | > 48 µM
CC(C)OC(=O)NNc1cccc(Cl)c1 | > 100 µM

Input: Param readout = TGI; param system = MDA-MB-435; param query = `O=C(O)c1cccc(OCCOc2cccc(C(=O)O)c2[N+](=O)[O-])c1[N+](=O)[O-]` ; response: value
Output: > 100 µM

Input: What do you have for `O=C(c1cccs1)c1nc2cc(Cl)ccc2[n+]([O-])c1C(F)(F)F` ?
Output: > 100 µM

Input: What do you have for `C/C(=N\O)c1cccc(Nc2cc(-c3ccccc3)nc3c(O)cccc23)c1` ?
Output: 2.01 µM

Input: What do you have for `CCCCCCc1cc2cc(-c3csc(/C=C/c4ccccc4)n3)c(=O)oc2cc1O` ?
Output: 27.2 µM

Input: What do you have for CCN(CC)CC(O)COc1c(Br)c(Br)c(Br)c2c1OC(C)(C)C2 (configuration not stated) ?
Output: 7.31 µM

Input: What do you have for CCOC(=O)C1=CNC(C(=O)OCC)C1c1cccn1-c1ccccc1 (configuration not stated) ?
Output: 57.6 µM

Input: What do you have for CS(=N)(=O)CCC(N)P(=O)(O)O (configuration not stated) ?
Output: > 100 µM

Input: What do you have for `C=C(CCC/C(C)=C/C=C/[C@H](C)CCCc1ccoc1)C[C@@H]1OC(=O)[C@H](C)[C@@H]1O` ?
Output: 18.5 µM

Input: What do you have for `O=C(O)c1cn(C2CC2)c2cc(N3CCN(C(=O)Nc4nc(-c5ccc(Br)cc5)cs4)CC3)c(F)cc2c1=O` ?
Output: > 100 µM

###

# Test system: IGROV1 ovarian
# experimentDescription: NCI tumour cell line growth inhibition, 48 h
Quick reference: GI50 of the listed items.

molecule | GI50
C=C(CN1CCN(c2ccccc2C(F)(F)F)CC1)c1ccc(C(=O)Nc2ccccc2N)cc1 | 6.03 µM
O=C(Nc1ccc(I)cc1)c1cccc([N+](=O)[O-])c1O | 6.15 µM
COc1ccc(/C=C/C(=O)c2ccc(Nc3nc(Nc4ccc(F)cc4)nc(Nc4ccc(Cl)cc4)n3)cc2)cc1 | 17.7 µM
COc1cc2c(cc1OCCCCn1c(-c3cccs3)nc3ccccc31)N=C[C@@H]1CCCN1C2=O | 0.754 µM
Cc1cc(C(O)(c2ccc(Nc3ccccc3)cc2)c2ccc(Nc3ccc(S(=O)(=O)O)cc3)cc2)ccc1N (stereo not drawn) | 1.52 µM
COc1ncc(-c2ccc3nccc(C#CCN4CCN(S(C)(=O)=O)CC4)c3c2)cc1NS(=O)(=O)c1ccc(F)cc1F | < 0.01 µM
O=Cc1ccc(-c2ccc(-c3ccc(C=O)o3)[se]2)o1 | > 65.9 µM

Consider the additional molecule presented here.
Input: Param readout = GI50; param system = IGROV1 ovarian; param query = `O=C([O-])CCc1ccccc1.O=C([O-])CCc1ccccc1.O=C([O-])CCc1ccccc1.O=C([O-])CCc1ccccc1.[Mo+2].[Mo+2]` ; response: value
Output: > 100 µM

###

# System: HCT-15 colon
# experimentDescription: NCI tumour cell line growth inhibition, 48 h
experimentalReadout: TGI

molecule | experimentalReadout | experimentalResult
c1ccc2cc(CNCCCCNCCCNCc3ccc4ccccc4c3)ccc2c1 | TGI | 1.58 µM
Cc1cccc2c1c(=O)c1c(O)cc3c(c1n2C)C=CC(C)(C)O3 | TGI | > 100 µM
Cn1c(=O)c2[nH]c(CCCc3ccc([N+](=O)[O-])cc3)nc2n(C)c1=O | TGI | > 100 µM
CCc1ccc(Nc2cc(=O)n(C)c(SCc3ccccc3)n2)cc1 | TGI | > 100 µM
CN(C)c1ccc(/C=c2\sc3nnc(-c4cccnc4)n3c2=O)cc1 | TGI | > 100 µM
CC1(C)OC2C(CO)OC(n3ccc(N)nc3=O)C2O1 (configuration not stated) | TGI | > 100 µM

Input: What does the data say about its TGI? Entry: `CCc1nc2ccccc2c(=O)n1/N=C(\N=Nc1ccc(Cl)cc1)c1ccccc1`
Output: > 100 µM
